Hello, the source for this data is PubChem BioAssay (EPA / NIEHS), in case you need it.

assay.comment: ATG_E_Box_CIS: Attagene CIS-FACTORIAL HepG2 Assay for human Enhancer Box (E-box) (AID 2282936)
test.parameters: HepG2 E-box cis-reporter transcription, actives raise or lower the signal
The source made the active and inactive calls. The calls were made as follows: active = hit-call score of the fitted dose curve at least 0.9, where 1 is the maximum; inactive = score below 0.9.
Thanks in advance; please answer with one of these: active, inactive

Q. Just curious, what result did `CCCCCCCCn1sccc1=O` get here?
A. inactive

Q. Just curious, what result did `Nc1ccc(Cl)cc1N` get here?
A. inactive

Q. Just curious, what result did `CCC12COCN1COC2` get here?
A. inactive

Q. Just curious, what result did `N#CC(Br)(Br)C(N)=O` get here?
A. inactive

Q. Just curious, what result did `CCCSC(=O)N(CCC)CCC` get here?
A. inactive

Q. Just curious, what result did `CCCCOC(=O)c1ccccc1C(=O)OCc1ccccc1` get here?
A. inactive

Q. Just curious, what result did `COc1cc(C=O)cc2c1[C@H](COC(N)=O)[C@]1(OC(C)=O)ON2C[C@H]2[C@@H]1N2C(C)=O` get here?
A. active

Q. Just curious, what result did CC(O)CCO (centres undefined) get here?
A. inactive

Q. Just curious, what result did `Oc1ccccc1Cl` get here?
A. inactive

----------
Read-out: Cytochrome P450 (CYP1A2), CYP1A2 (gene 1544)
assay.comment: LTEA_HepaRG_CYP1A2: Life Technologies and Expression Analysis (LTEA) Assay for Cytochrome P450 (CYP1A2) using HepaRG (AID 2283479)
test.parameters: mRNA level, 48 h; actives raise or lower the signal
The source made the active and inactive calls. The calls were made as follows: active = hit-call score of the fitted dose curve at least 0.9, where 1 is the maximum; inactive = score below 0.9.
Thanks in advance; please answer with one of these: t (active), f (inactive)

Below, 3 molecules whose answers are already recorded.
compound_smiles=Cn1cc(-c2ccccc2)c(=O)c(-c2cccc(C(F)(F)F)c2)c1 class_label=t
compound_smiles=CS(=O)(=O)NC(=O)c1cc(Oc2ccc(C(F)(F)F)cc2Cl)ccc1[N+](=O)[O-] class_label=f
compound_smiles=Clc1ccc(Cl)c(Cl)c1 class_label=f

Q. Just curious, what result did `CN(C)c1ccc(C(=O)c2ccc(N(C)C)cc2)cc1` get here?
A. t

Q. Just curious, what result did `Nc1ccc(Oc2ccc(N)cc2)cc1` get here?
A. t

Q. Just curious, what result did `c1ccc2c(c1)oc1ccccc12` get here?
A. t

Q. Just curious, what result did `COC(=O)c1ccccc1N` get here?
A. f

----------
Read-out: Cytochrome P450 (CYP1A1), CYP1A1 (gene 1543)
assay.comment: LTEA_HepaRG_CYP1A1: Life Technologies and Expression Analysis (LTEA) Assay for Cytochrome P450 (CYP1A1) using HepaRG (AID 2283454)
test.parameters: mRNA level, 48 h; actives raise or lower the signal
Calls of active or inactive are those of the source. Rule for the calls: active = hit-call score of the fitted dose curve at least 0.9, where 1 is the maximum; inactive = score below 0.9.
Thanks in advance; please answer with one of these: active, inactive

compound_smiles=OCCCBr class_label=inactive
compound_smiles=c1ccc2c(c1)-c1cccc3cccc-2c13 class_label=active
compound_smiles=Cc1ccc(N)c(N)c1 class_label=active
compound_smiles=OCCOCCO class_label=inactive

Q. Just curious, what result did `CN(C)c1ccccc1` get here?
A. active

----------
assay.comment: CCTE_Shafer_MEA_dev_spike_duration_mean: CCTE's Neural Network Formation Assay for Mean Spike Duration, Shafer Lab (AID 2284051);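 also: mean network spike duration pooled as area under curve over DIV 5 to 12 recordings; potency for a decrease in mean network spike duration versus DMSO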
Calls of active or inactive are those of the source. The calls were made as follows: active = hit-call score of the fitted dose curve at least 0.9, where 1 is the maximum; inactive = score below 0.9.
Thanks in advance; please answer with one of these: true (1) = active, false (0) = inactive

molecule="ClC1=C(Cl)C2(Cl)C3C(Cl)C=CC3C1(Cl)C2(Cl)Cl (stereo unspecified)" class_label="true (1)"

Q. Just curious, what result did `CC(C)(O)c1cnn2c(-c3ccc(F)c(-c4c(F)cccc4C#N)c3)cnc2n1` get here?
A. true (1)

----------
assay.comment: CEETOX_H295R_DOC: CeeTox H295R High-throughput Steroidogenesis Assay for DOC (AID 2283439)
test.parameters: actives raise or lower the signal
Calls of active or inactive are those of the source. How the source made its calls: active means hit-call score of the fitted dose curve at least 0.9, where 1 is the maximum; inactive means score below 0.9.
measure.name: AC50

compound=COP(=S)(OC)SCN1C(=O)c2ccccc2C1=O measured=inactive
compound=[As]#[In] measured=inactive
compound=Oc1ccc2ccc3cccc4ccc1c2c34 measured="12.9 µM (active)"
compound="CCCCCCCCCCCCCN1CC(C)OC(C)C1 (stereo not drawn)" measured="6.39 µM (active)"
compound=O=C(Oc1ccc(Br)cc1)N1CCN2CCC1CC2 measured="1.06 µM (active)"
compound="CC(C)(C)C(O)(CCc1ccc(Cl)cc1)Cn1cncn1 (stereo not drawn)" measured="0.26 µM (active)"
compound=CNC(=O)Oc1cccc2c1OC(C)(C)C2 measured=inactive

Q. What does the record list as AC50 for `Cc1cc(N=Nc2ccccc2C)ccc1N` ?
A. inactive

----------
Read-out: Transforming Growth Factor (TGFB1), TGFB1 (gene 7040)
assay.comment: LTEA_HepaRG_TGFB1: Life Technologies and Expression Analysis (LTEA) Assay for Transforming Growth Factor (TGFB1) Transporter using HepaRG (AID 2283533)
test.parameters: mRNA level, 48 h; actives raise or lower the signal
Active and inactive are the calls of the source. Rule for the calls: active = hit-call score of the fitted dose curve at least 0.9, where 1 is the maximum; inactive = score below 0.9.
Thanks in advance; please answer with one of these: active, inactive

Q. Just curious, what result did `C1=Cc2cccc3cccc1c23` get here?
A. inactive

Q. Just curious, what result did `Cc1ccc([N+](=O)[O-])cc1` get here?
A. inactive

----------
assay.comment: BSK_LPS_PGE2: BioMAP Diversity Plus: LPS Assay for Prostaglandin E2 (PGE2) Biomarker Activity (AID 2283082)
test.parameters: primary human HUVEC with PBMC; actives raise or lower the signal
Activity calls are given as the source filed them. The calls were made as follows: active = hit-call score of the fitted dose curve at least 0.9, where 1 is the maximum; inactive = score below 0.9.
Thanks in advance; please answer with one of these: active, inactive

Below, 2 compounds whose answers are already recorded.
compound=CC(C)COC(=O)c1ccccc1C(=O)OCC(C)C class_label=active
compound=CCC12COCN1COC2 class_label=inactive

Q. Just curious, what result did `CCN(CC)CCO` get here?
A. inactive

Q. Just curious, what result did `O=C(N[C@H](c1ccccc1)[C@@H]1CN2CCC1CC2)c1c(Cl)ccc(C(F)(F)F)c1Cl` get here?
A. active

Q. Just curious, what result did `CN(C)c1ccccc1` get here?
A. inactive

Q. Just curious, what result did CCCCC(CC)COC(=O)c1ccc(C(=O)OCC(CC)CCCC)c(C(=O)OCC(CC)CCCC)c1 (stereo unspecified) get here?
A. inactive

Q. Just curious, what result did `CCN(CC)N=O` get here?
A. inactive

----------
assay.comment: CEETOX_H295R_11DCORT: CeeTox H295R High-throughput Steroidogenesis Assay for 11-Deoxycortisol (11DCORT) (AID 2283432)
test.parameters: actives raise or lower the signal
Active and inactive are the calls of the source. Rule for the calls: active = hit-call score of the fitted dose curve at least 0.9, where 1 is the maximum; inactive = score below 0.9.
Thanks in advance; please answer with one of these: TRUE = active, FALSE = inactive

compound=O=P(OCCCl)(OCCCl)OCCCl class_label=FALSE
compound=Nc1ccc(Cl)cc1N class_label=FALSE
compound=Cc1ccc(N=C=O)cc1N=C=O class_label=FALSE
compound=c1ccc(N=Nc2ccccc2)cc1 class_label=FALSE
compound=O=C(Oc1ccc(Br)cc1)N1CCN2CCC1CC2 class_label=TRUE
compound=Cc1cccc(N)c1N class_label=FALSE
compound=Oc1ccc2ccc3cccc4ccc1c2c34 class_label=TRUE
compound=COP(=S)(OC)SCN1C(=O)c2ccccc2C1=O class_label=FALSE
compound=Cc1ccc(N)c(N)c1 class_label=FALSE
compound=O=C(Nc1ccccc1)c1ccccc1I class_label=TRUE

Q. Just curious, what result did CCC(C)c1ccc(O)cc1 (stereo unspecified) get here?
A. FALSE

Q. Just curious, what result did `CCOC(=O)[C@]1(c2ccccc2)Oc2ccccc2[C@@H]1N` get here?
A. TRUE

Q. Just curious, what result did `CCCCCOC(=O)c1ccccc1C(=O)OCCCCC` get here?
A. FALSE

Q. Just curious, what result did `CNC(=O)Oc1cccc2c1OC(C)(C)C2` get here?
A. FALSE

Q. Just curious, what result did CC(C)(C)C(O)(CCc1ccc(Cl)cc1)Cn1cncn1 (stereo unspecified) get here?
A. TRUE

Q. Just curious, what result did `Nc1ccc(Cc2ccc(N)cc2)cc1` get here?
A. TRUE

----------
tested.system: Androgen Receptor/SRC-1 Co-activator, AR (gene 367) (UniProt P10275)
Sequence (P10275 whole entry, looked up): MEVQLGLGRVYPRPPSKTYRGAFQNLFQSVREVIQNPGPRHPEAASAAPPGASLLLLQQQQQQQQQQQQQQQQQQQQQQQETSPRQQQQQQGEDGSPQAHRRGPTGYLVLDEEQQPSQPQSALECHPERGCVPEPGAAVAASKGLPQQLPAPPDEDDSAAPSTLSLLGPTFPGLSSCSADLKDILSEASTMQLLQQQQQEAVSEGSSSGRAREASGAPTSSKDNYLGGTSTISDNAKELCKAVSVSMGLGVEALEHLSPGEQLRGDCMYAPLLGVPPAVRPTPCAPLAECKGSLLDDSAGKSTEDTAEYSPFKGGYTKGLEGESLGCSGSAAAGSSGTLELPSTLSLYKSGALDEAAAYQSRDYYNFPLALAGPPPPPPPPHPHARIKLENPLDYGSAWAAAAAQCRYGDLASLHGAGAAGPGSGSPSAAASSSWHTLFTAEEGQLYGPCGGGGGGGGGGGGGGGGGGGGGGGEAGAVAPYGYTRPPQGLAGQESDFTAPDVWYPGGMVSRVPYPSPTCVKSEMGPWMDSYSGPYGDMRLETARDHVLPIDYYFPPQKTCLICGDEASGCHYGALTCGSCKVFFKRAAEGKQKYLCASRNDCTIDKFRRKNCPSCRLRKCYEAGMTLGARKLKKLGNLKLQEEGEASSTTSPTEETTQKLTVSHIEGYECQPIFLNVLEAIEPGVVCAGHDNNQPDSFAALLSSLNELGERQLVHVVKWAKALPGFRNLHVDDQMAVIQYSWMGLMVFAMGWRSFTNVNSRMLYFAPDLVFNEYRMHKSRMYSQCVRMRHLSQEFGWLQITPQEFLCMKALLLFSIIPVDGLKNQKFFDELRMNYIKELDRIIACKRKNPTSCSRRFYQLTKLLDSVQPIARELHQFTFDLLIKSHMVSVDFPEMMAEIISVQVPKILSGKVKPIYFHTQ
assay.comment: OT_AR_ARSRC1_0960: Odyssey Thera (OT) 16-hour HEK293T Protein-Complementation Assay for Androgen Receptor/SRC-1 Co-activator (AID 2283353);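 also: actives raise the signal above DMSO so potency reflects increased AR and SRC-1 complex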
Active and inactive are the calls of the source. How the source made its calls: active means hit-call score of the fitted dose curve at least 0.9, where 1 is the maximum; inconclusive means response in the unintended direction; inactive means score below 0.9.
Thanks in advance; please answer with one of these: active, inactive

Q. Just curious, what result did `CC(C)N(Cc1ccccc1)C(=O)C(C)(C)C` get here?
A. inactive

----------
assay.comment: BSK_3C_SRB: Viability Assessment in the BioMAP Diversity Plus: 3C Assay (AID 2283023);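 also: cells read 24 h after compound dosing; fitted both ways against DMSO so a hit may be signal rise or drop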
test.parameters: primary human endothelial cells (HUVEC)
Active and inactive are the calls of the source. The calls were made as follows: active = hit-call score of the fitted dose curve at least 0.9, where 1 is the maximum; inactive = score below 0.9.
measure.name: AC50

Would you please look over these solved cases?
molecule=O=C(N[C@H](c1ccccc1)[C@@H]1CN2CCC1CC2)c1c(Cl)ccc(C(F)(F)F)c1Cl measure_name=AC50 measured="29.7 µM (active)"
molecule=Brc1ccc(Oc2ccccc2)cc1 measure_name=AC50 measured="28.9 µM (active)"
molecule=Nc1ccc(Cl)cc1N measure_name=AC50 measured=inactive
molecule="ClC1=C(Cl)C2(Cl)C3C(Cl)C=CC3C1(Cl)C2(Cl)Cl (stereo unspecified)" measure_name=AC50 measured="28.7 µM (active)"
molecule=O=[N+]([O-])C(Br)(CO)CO measure_name=AC50 measured="15.3 µM (active)"

Q. What does the record list as AC50 for `CC(C)(O)c1cnn2c(-c3ccc(F)c(-c4c(F)cccc4C#N)c3)cnc2n1` ?
A. 30.4 µM (active)
